procedure-summary: Pharmacokinetic screening in mouse plasma after subcutaneous administration
Type: in vivo
run-parameters: sc, mice, 100 nmol/kg s.c., * = only two time points used for calculation
observed-property: half-life (min)
Give bare numbers, in min.

Exam item: Tell me the measured half-life of H-HSQGTFTSDYSKYLDSKAAHDFVEWLLRA-NH2 [Compound 1] , please.
Marked response: 13.8

Where do the numbers come from? From patent US10004786B2.
